Kindly state normalized growth for each of the entries shown.
- test: chemical genetic growth profiling, strain panel (AID 1159580);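 also: tested at 20 µM; growth read once vehicle control cultures reached saturation at 30 °C; 1 = growth at the plate median or of vehicle wells; lower values mean less growth of the strain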
- condition parameters: S. cerevisiae deletion strains, growth OD, locus YLL041C, strain sdh2, stronger effect = lower value
Out of some 5,500 compounds screened, about 2,000 (36%) were called active. About 18% were inconclusive and are not listed. The list shows a part of the results.
Enter a number only.

Please look up its normalized growth: Cc1c(Cl)cccc1Nc1ccccc1C(=O)O
0.818

Please look up its normalized growth: Cc1cccc(Nc2ccccc2C(=O)O)c1C
0.901

Please look up its normalized growth: Cc1cc(-c2ccccc2)nnc1NCCN1CCOCC1
0.988

Please look up its normalized growth: COc1cc(-c2coc3cc(OC)c(OC)c(OC)c3c2=O)cc(OC)c1OC
0.996

Please look up its normalized growth: CCCCCCCCCCCCCCCC(=O)OC1C(SC)OC(C(NC(=O)C2CC(CCC)CN2C)C(C)Cl)C(O)C1O (configuration not stated)
0.978

Please look up its normalized growth: COc1ccc(-c2coc3cc(OC)cc(OC)c3c2=O)cc1
0.991

Please look up its normalized growth: COc1cc(OC)c2c(=O)c(-c3ccccc3)coc2c1
0.991

Please look up its normalized growth: NC(=O)c1cccc(N)c1
0.97

Please look up its normalized growth: C=C1CCC(OC(C)=O)/C(C)=C/C[C@@H]2[C@@H]1CC2(C)C (some centres not stated)
1.01

Please look up its normalized growth: C=C1CCC(C2CC(=O)OC2=O)C(=O)CCC2C1CC2(C)C (configuration not stated)
1.01

Please look up its normalized growth: COc1cc2occ(-c3ccccc3)c(=O)c2c(OC)c1C
0.976

Please look up its normalized growth: C=C1CCC2C(CC2(C)C)C(=O)CCC1O (configuration not stated)
0.987

---

- test: chemical genetic growth profiling, strain panel (AID 1159580);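 also: tested at 20 µM; growth read once vehicle control cultures reached saturation at 30 °C; 1 = growth at the plate median or of vehicle wells; lower values mean less growth of the strain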
- condition parameters: S. cerevisiae deletion strains, growth OD, locus YOR265W, strain rbl2
Screen size: about 5,500 compounds; about 2,000 (36%) were called active. Roughly 18% stayed inconclusive and do not appear here. Rule as the data show it: active = normalized growth mostly below about 0.91 (no sharp cut-off); inconclusive = no clear call, values can overlap the other calls; inactive = mostly above about 0.92. The list shows a part of the results.
Can you answer with just one of these options? active, inactive

Which outcome did this test record for the compound COc1ccc(CCN2CCC(Nc3nc4ccccc4n3Cc3ccc(F)cc3)CC2)cc1 ?
inactive

Which outcome did this test record for the compound C#CCCCCCCCCCCCC(=O)CC(O)COC(C)=O (stereo unspecified) ?
inactive

Which outcome did this test record for the compound C=C1CCC(C2CC(=O)OC2=O)C(=O)CCC2C1CC2(C)C (stereo unspecified) ?
inactive

Which outcome did this test record for the compound COc1ccc(-c2coc3cc(OC)cc(OC)c3c2=O)cc1 ?
inactive

Which outcome did this test record for the compound Nc1nc2ncc(=O)[nH]c2c(=O)[nH]1 ?
inactive

Which outcome did this test record for the compound Cn1c(=O)c2[nH]cnc2n(C)c1=O ?
inactive

Which outcome did this test record for the compound OCc1ccccc1O ?
inactive

Which outcome did this test record for the compound COc1cc(OC)c2c(=O)c(-c3ccccc3)coc2c1 ?
inactive

Which outcome did this test record for the compound CC(C)NCC(O)COc1cccc2ccccc12 (stereo unspecified) ?
inactive

Which outcome did this test record for the compound Nc1ccn(C2O[C@H](CO)[C@@H](O)[C@@H]2O)c(=O)n1 (stereo partly specified) ?
inactive

Which outcome did this test record for the compound C#CCCCCCCCCCCCC(O)CC(O)COC(C)=O (stereo unspecified) ?
active

Which outcome did this test record for the compound O=C(O)CN(CC(=O)O)Cc1cc2c(-c3ccccc3C(=O)O)c3cc(CN(CC(=O)O)CC(=O)O)c(=O)cc-3oc2cc1O ?
inactive

Which outcome did this test record for the compound COc1cc2occ(-c3ccccc3)c(=O)c2c(OC)c1C ?
inactive

Which outcome did this test record for the compound CC(=O)OCC[C@H](C)CCC=C(C)C ?
inactive

Which outcome did this test record for the compound CC(C)NC[C@H](O)COc1cccc2ccccc12 ?
inactive

Which outcome did this test record for the compound O=C1NC(=O)C(=O)C(=O)N1 ?
inactive

Which outcome did this test record for the compound O=C(Cn1ccnc1[N+](=O)[O-])NCCO ?
inactive

Which outcome did this test record for the compound COc1cc(-c2coc3cc(OC)c(OC)c(OC)c3c2=O)cc(OC)c1OC ?
inactive

Which outcome did this test record for the compound O=c1cc(-c2ccccc2O)oc2cc(O)ccc12 ?
inactive

Which outcome did this test record for the compound CC(C)NCC(O)c1cc(O)cc(O)c1 (stereo unspecified) ?
inactive

Which outcome did this test record for the compound O=C(O)CN1C(=O)c2cccc3cccc(c23)C1=O ?
inactive

src = PubChem BioAssay AID1159580
